pIC50: −log10 of the molar value.
Target or system PRMT1 (Homo sapiens); recorded quantity pIC50.

Compound smiles	Property name	Value measured
CNCCN(C)Cc1ncccc1C1CCN(CC(F)(F)F)CC1	pIC50	> 7.30
CNCCN(C)Cc1ncccc1N1CCC(Oc2ccccn2)CC1	pIC50	> 7.30
CNCCN(C)Cc1cc(F)ccc1C1CCN(c2cccc(C)c2)CC1	pIC50	> 7.30

Can you look up pIC50 on PRMT1 (Homo sapiens) for `CNCCN(C)Cc1ncccc1N1CCC(Oc2cnc(C)nc2)CC1` ?
> 7.30

###

Below: a set of entries, each annotated with reported IC50.
Tested target: PRMT1 (Homo sapiens)
Sequence (Q99873 whole entry): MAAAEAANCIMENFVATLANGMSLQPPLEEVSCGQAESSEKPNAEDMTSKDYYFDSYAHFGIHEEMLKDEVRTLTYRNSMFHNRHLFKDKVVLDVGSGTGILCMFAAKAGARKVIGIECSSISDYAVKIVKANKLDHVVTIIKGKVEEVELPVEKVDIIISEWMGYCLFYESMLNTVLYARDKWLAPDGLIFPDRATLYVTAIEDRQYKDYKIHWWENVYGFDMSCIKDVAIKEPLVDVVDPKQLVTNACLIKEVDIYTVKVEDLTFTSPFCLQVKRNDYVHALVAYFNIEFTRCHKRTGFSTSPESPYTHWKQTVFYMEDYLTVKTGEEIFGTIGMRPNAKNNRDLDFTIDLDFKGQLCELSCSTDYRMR

As a guide, the following entries are already answered.
Compound	Tested target	IC50
CCOCC1(COCC)CCC(c2ccncc2CN(C)CCNC)CC1 [P205]	PRMT1 (Homo sapiens)	50 to 500 nM
CNCCN(C)Cc1ccc(C)nc1C1CCN(c2cccc(N(C)C)c2)CC1 [P099]	PRMT1 (Homo sapiens)	< 50 nM
CNCCN(C)Cc1ncccc1N1CCC(Oc2cc(C)cc(C)c2)CC1 [P148]	PRMT1 (Homo sapiens)	< 50 nM
CCOC[C@H]1CC[C@H](c2cccnc2CN(C)CCNC)CC1 [P173]	PRMT1 (Homo sapiens)	< 50 nM
CNCCN(C)Cc1ccccc1[C@H]1CC[C@@]2(CCCOC2)CC1 [P053]	PRMT1 (Homo sapiens)	< 50 nM

# context switch: different compound, same IC50
Any idea what IC50 came out for NCCCCc1ccccc1N1CCc2cc(F)c(F)cc2CC1 [P350] on PRMT1 (Homo sapiens)?
≥ 500 nM
